Sourced from the RNAGym collection of RNA variant scans (doi:10.7554/elife.90254)

B1: LINE1-full (parent)
chain: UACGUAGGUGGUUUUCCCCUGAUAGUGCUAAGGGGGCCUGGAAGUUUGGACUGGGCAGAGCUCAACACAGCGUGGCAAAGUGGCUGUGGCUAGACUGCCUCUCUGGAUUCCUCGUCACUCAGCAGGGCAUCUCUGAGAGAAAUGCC

# Variants of: B1
# EXPERIMENT DESCRIPTION: self-cleavage, relative activity (ratio to wild type); higher = more cleavage; in vitro, sequencing; the parent is a self-cleaving ribozyme
MEASUREMENT KIND: self-cleavage

Q: Can you look up the measured self-cleavage of A42U U132C for me?
Result: 1.01

Q: Follow-up item: A30G A42U
Result: 1.06

Q: Follow-up item: A107G U112A
Result: 1.45
